tested on: PLK1; settings: concentration: 1 μM, replicates: in singlicate; n = 1;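 further: KINOMEscan kinase panel screen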
quantityKind: %Inh (%)

> print(dat)
                                    compound  quantitykind  unitname  observed
 1           Fc1cc(Cl)ccc1Nc1ccnc2cc(I)ccc12          %Inh         %         0
 2  COc1cc2ncn(-c3cc(OCC4CCCO4)c(C(N)=O)s3)c2cc1OC (stereo not shown)          %Inh         %      98.9
 3  Cc1ccc(-c2cc(-c3c[nH]nc3-c3ccccn3)ccn2)cc1          %Inh         %         0
 4  CN(C)CCN(C)C(=O)c1cc(-c2ccncc2)c(-c2ccc(Cl)c(O)c2)o1.Cl.Cl          %Inh         %         8
 5  COc1ccc(Nc2nccc(-c3cccc(NC(=O)c4cc5cc(F)ccc5[nH]4)c3)n2)cc1          %Inh         %        24
 6  O=C(Nc1n[nH]c2cc(-c3cccc(F)c3F)ccc12)C1CC1          %Inh         %         0
 7  COc1ccccc1CNC(=O)c1cc(C(=O)c2ccccc2C)c[nH]1          %Inh         %         0
 8      Cc1csc(-c2nc(Nc3ccncc3)c3ccccc3n2)n1          %Inh         %        51
 9  O=C(Nc1n[nH]c2nc(-c3nccs3)c(Br)cc12)C1CCCC1          %Inh         %         0
10  Cl.Oc1ccc(-c2nc(-c3ccccc3)[nH]c2-c2ccncc2)cc1          %Inh         %         0
11  COc1ccc2nc(-c3cccc(C)n3)nc(Nc3ccncc3)c2c1          %Inh         %         0
12  CS(=O)(=O)c1ccc(-c2nc3n(c2-c2ccncc2)CCC3)cc1          %Inh         %         0
13  Cc1cccc(-c2nc(Nc3cccc(C(N)=O)c3)c3ccccc3n2)n1          %Inh         %         0
14                     NC(=O)c1nnc2ccccc2c1N          %Inh         %        28
15  Cl.O=C(Nc1cccc(-c2nn3ncccc3c2-c2ccnc(Nc3cccnc3)n2)c1)c1c(F)cccc1F          %Inh         %         0
16  O=S(=O)(c1ccc(-c2ccnc3[nH]ccc23)cc1)N1CCCC1          %Inh         %         0
17  C[C@@H]1CCCCN1c1cc(-c2ccc3c(N)n[nH]c3c2)nc(N)n1          %Inh         %         0
18  Cc1nnc(-c2ccc3occ(-c4ccc(S(C)=O)cc4)c3c2)[nH]1 (stereo not shown)          %Inh         %         0
19                Cc1ccccc1-n1cnc2c(N)ncnc21          %Inh         %         0
20  Cc1ccc(NC(=O)Nc2cc(C(C)(C)C)nn2-c2ccccc2)cc1          %Inh         %         0
21  CN1C(=O)C(Nc2ccc(Cl)c(C(=O)O)c2)=C(c2ccc(Cl)cc2)C1=O          %Inh         %        18
22  COc1cc2ncnc(Nc3ccc4nc(-c5ccccc5)[nH]c4c3)c2cc1OC.Cl          %Inh         %         9
23  COc1ccc(Nc2nccc(NCCNC(=O)Nc3ccccc3F)n2)cc1          %Inh         %         0
24  COC(=O)c1c(-c2ccccc2)c2cc(OC)ccc2c(=O)n1Cc1ccccc1          %Inh         %         0
25   O=C(Nc1ccccc1)Nc1cccc(Oc2ccc3nccn3n2)c1          %Inh         %        33
26  COc1ccc(C2=C(Nc3cccc(C(=O)O)c3)C(=O)NC2=O)cc1          %Inh         %        21
27     Cc1cccc(-c2nc(Nc3ccncc3)c3ccccc3n2)n1          %Inh         %         6
28  O=C(O)COc1ncnc2cc(-c3ccc4[nH]ncc4c3)sc12          %Inh         %         2
29   O=C1NC(=O)C(N2CCc3ccccc32)=C1c1ccccc1Cl          %Inh         %        14
30  Fc1cc(Cl)ccc1Nc1ccnc2cc(-c3ccc(CN4CCCCC4)o3)ccc12          %Inh         %         0
31  COC(=O)c1c(-c2ccccc2)c2cc(C(=O)O)ccc2c(=O)n1Cc1ccccc1          %Inh         %         0
